Measured values drawn from the NIST ThermoML archive (doi:10.1016/j.jct.2017.11.017) for this set.

Assay: activity coefficient (dimensionless); of the first substance listed, at infinite dilution; xn = mol fraction of the nth substance listed
Settings: 368.15 K; 101.33 kPa; Liquid; Chromatography; x1 = 0
Kindly apply the following: MET if activity coefficient is less than 20, NOT MET in every other case.

1. C=Cc1ccccc1 [styrene] + C[N+]1(CCCO)CCOCC1.N#C[N-]C#N
MET
2. CCC[N+](=O)[O-] [1-nitropropane] + C[N+]1(CCCO)CCOCC1.N#C[N-]C#N
MET
3. CC(C)c1ccccc1 [isopropylbenzene] + C[n+]1ccn(CCCO)c1.N#CN=C=[N-]
NOT MET
4. C#CCCC [1-pentyne] + C[N+]1(CCCO)CCOCC1.N#C[N-]C#N
NOT MET
5. O [water] + C[N+]1(CCCO)CCOCC1.N#C[N-]C#N
MET
6. CCc1ccccc1 [ethylbenzene] + C[N+]1(CCCO)CCOCC1.N#C[N-]C#N
NOT MET
7. CCCCCCCCC [nonane] + C[N+]1(CCCO)CCOCC1.N#C[N-]C#N
NOT MET
8. CCc1ccccc1 [ethylbenzene] + C[n+]1ccn(CCCO)c1.N#CN=C=[N-]
MET

---

Assay: activity coefficient (dimensionless); of the first substance listed, at infinite dilution; xn = mol fraction of the nth substance listed
Conditions: 338.15 K; 101.33 kPa; Liquid; Chromatography; x1 = 0
List of activity coefficient values.
readout_type: activity coefficient

1. C#CCCCCC [1-heptyne] + C[n+]1ccn(CCCO)c1.N#CN=C=[N-]
35.1
2. CC(C)OC(C)C [diisopropyl ether] + C[n+]1ccn(CCCO)c1.N#CN=C=[N-]
90.6
3. c1ccccc1 [benzene] + C[n+]1ccn(CCCO)c1.N#CN=C=[N-]
4.74
4. c1ccncc1 [pyridine] + C[N+]1(CCCO)CCOCC1.N#C[N-]C#N
1.89
5. CCCC(C)=O [pentan-2-one] + C[n+]1ccn(CCCO)c1.N#CN=C=[N-]
5.32

---

Experiment: activity coefficient (dimensionless); of the first substance listed, at infinite dilution; xn = mol fraction of the nth substance listed
Conditions: 318.15 K; 101.33 kPa; Liquid; Chromatography; x1 = 0
Quick rule: activity coefficient of at least 60 means satisfied, below that means not satisfied.

1) CCOC(C)(C)C [2-ethoxy-2-methylpropane] + C[n+]1ccn(CCCO)c1.N#CN=C=[N-]
satisfied
2) C1CCCCCC1 [cycloheptane] + C[n+]1ccn(CCCO)c1.N#CN=C=[N-]
satisfied
3) C1CCCCCCC1 [cyclooctane] + C[N+]1(CCCO)CCOCC1.N#C[N-]C#N
satisfied
4) CCC(=O)CC [pentan-3-one] + C[n+]1ccn(CCCO)c1.N#CN=C=[N-]
not satisfied
5) CCCc1ccccc1 [propylbenzene] + C[N+]1(CCCO)CCOCC1.N#C[N-]C#N
not satisfied
6) CC#N [acetonitrile] + C[N+]1(CCCO)CCOCC1.N#C[N-]C#N
not satisfied
7) CCC(=O)OC [methyl propanoate] + C[N+]1(CCCO)CCOCC1.N#C[N-]C#N
not satisfied
8) Cc1ccc(C)cc1 [1,4-dimethylbenzene] + C[n+]1ccn(CCCO)c1.N#CN=C=[N-]
not satisfied
9) CCCOCCC [dipropyl ether] + C[N+]1(CCCO)CCOCC1.N#C[N-]C#N
satisfied
10) CC(C)CO [2-methyl-1-propanol] + C[n+]1ccn(CCCO)c1.N#CN=C=[N-]
not satisfied
11) CC#N [acetonitrile] + C[n+]1ccn(CCCO)c1.N#CN=C=[N-]
not satisfied
12) CO [methanol] + C[N+]1(CCCO)CCOCC1.N#C[N-]C#N
not satisfied
13) CC(C)CO [2-methyl-1-propanol] + C[N+]1(CCCO)CCOCC1.N#C[N-]C#N
not satisfied
14) CC(C)OC(C)C [diisopropyl ether] + C[N+]1(CCCO)CCOCC1.N#C[N-]C#N
satisfied
15) COC(C)=O [methyl ethanoate] + C[N+]1(CCCO)CCOCC1.N#C[N-]C#N
not satisfied
16) CC(C)O [propan-2-ol] + C[N+]1(CCCO)CCOCC1.N#C[N-]C#N
not satisfied
17) CCCC=O [butanal] + C[n+]1ccn(CCCO)c1.N#CN=C=[N-]
not satisfied
18) CCOC(C)(C)C [2-ethoxy-2-methylpropane] + C[N+]1(CCCO)CCOCC1.N#C[N-]C#N
satisfied
19) CCCO [propan-1-ol] + C[n+]1ccn(CCCO)c1.N#CN=C=[N-]
not satisfied
20) C1COCCO1 [1,4-dioxane] + C[N+]1(CCCO)CCOCC1.N#C[N-]C#N
not satisfied
21) CCC(C)(C)OC [2-methoxy-2-methylbutane] + C[N+]1(CCCO)CCOCC1.N#C[N-]C#N
satisfied
22) CCCCCCCCCC [decane] + C[N+]1(CCCO)CCOCC1.N#C[N-]C#N
satisfied
23) C=C(C)c1ccccc1 [(1-methylethenyl)benzene] + C[n+]1ccn(CCCO)c1.N#CN=C=[N-]
not satisfied
24) C=C(C)c1ccccc1 [(1-methylethenyl)benzene] + C[N+]1(CCCO)CCOCC1.N#C[N-]C#N
not satisfied
25) CCCC(=O)OC [methyl butanoate] + C[N+]1(CCCO)CCOCC1.N#C[N-]C#N
not satisfied
26) C1CCOC1 [tetrahydrofuran] + C[N+]1(CCCO)CCOCC1.N#C[N-]C#N
not satisfied
27) C#CCCC [1-pentyne] + C[n+]1ccn(CCCO)c1.N#CN=C=[N-]
not satisfied
28) C#CCCCCC [1-heptyne] + C[N+]1(CCCO)CCOCC1.N#C[N-]C#N
satisfied
